The measurements presented in this section are drawn from ChEMBL document CHEMBL4270552.

Molecular target: Protein mono-ADP-ribosyltransferase PARP10 (Homo sapiens)
Experiment: Inhibition of C-terminal His-tagged human ARTD10 (809 to 1017 residues) expressed in Escherichia coli Rosetta2 (DE3) using SRPK2 as substrate after 13 hrs in presence of NAD+
Details: read-out: IC50

{"columns": ["structure_smiles", "IC50"],
 "data": [
  ["COc1ccc(Oc2ccc(C(N)=O)cc2)cc1", "1400 nM"],
  ["NC(=O)c1ccc(OC2CCC2)cc1", "720 nM"],
  ["CC(C)Oc1ccc(C(N)=O)cc1", "1300 nM"],
  ["NC(=O)c1ccc(Oc2ccccc2)cc1", "1100 nM"],
  ["NC(=O)c1ccc(Oc2ccc(C(=O)O)cc2)cc1", "180 nM"],
  ["NC(=O)c1ccc(OCc2cccc3ccccc23)cc1", "1400 nM"],
  ["NC(=O)c1ccc(OCc2ccc(F)cc2)cc1", "7900 nM"],
  ["NC(=O)c1ccc(OCc2ccccc2F)cc1", "230 nM"],
  ["NC(=O)c1ccc(Oc2ccc(C=O)cc2)cc1", "710 nM"]
]}

---

Biological target: Protein mono-ADP-ribosyltransferase PARP10 (Homo sapiens) (UniProt Q53GL7)
Sequence (Q53GL7 whole entry): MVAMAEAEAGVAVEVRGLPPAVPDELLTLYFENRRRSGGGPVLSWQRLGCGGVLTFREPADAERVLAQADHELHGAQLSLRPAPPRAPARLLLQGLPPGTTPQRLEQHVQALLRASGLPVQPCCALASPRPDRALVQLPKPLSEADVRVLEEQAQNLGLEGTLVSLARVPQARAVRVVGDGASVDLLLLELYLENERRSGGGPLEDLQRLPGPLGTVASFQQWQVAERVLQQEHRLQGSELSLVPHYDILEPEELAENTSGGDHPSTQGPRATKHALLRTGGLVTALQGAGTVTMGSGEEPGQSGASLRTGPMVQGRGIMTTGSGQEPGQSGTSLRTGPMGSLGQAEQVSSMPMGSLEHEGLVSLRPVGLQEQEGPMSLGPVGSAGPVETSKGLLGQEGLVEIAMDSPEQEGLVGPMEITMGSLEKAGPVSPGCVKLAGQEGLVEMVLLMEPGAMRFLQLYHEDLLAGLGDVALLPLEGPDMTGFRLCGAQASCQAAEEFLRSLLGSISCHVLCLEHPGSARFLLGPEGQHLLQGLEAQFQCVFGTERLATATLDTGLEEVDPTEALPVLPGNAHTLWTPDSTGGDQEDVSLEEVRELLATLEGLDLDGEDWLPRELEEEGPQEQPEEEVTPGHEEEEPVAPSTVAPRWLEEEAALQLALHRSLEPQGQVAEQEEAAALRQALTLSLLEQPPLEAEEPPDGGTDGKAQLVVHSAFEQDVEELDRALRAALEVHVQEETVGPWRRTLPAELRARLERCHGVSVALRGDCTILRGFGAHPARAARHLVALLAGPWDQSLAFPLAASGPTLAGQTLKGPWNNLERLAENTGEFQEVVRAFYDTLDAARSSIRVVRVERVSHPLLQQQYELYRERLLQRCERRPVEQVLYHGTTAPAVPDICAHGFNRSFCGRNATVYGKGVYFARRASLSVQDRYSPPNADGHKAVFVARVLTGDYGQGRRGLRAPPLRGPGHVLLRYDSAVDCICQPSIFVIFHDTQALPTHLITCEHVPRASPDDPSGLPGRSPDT
measured_property: ΔTm (°C)

{"columns": ["structure_smiles", "reported_result"],
 "data": [
  ["NC(=O)c1ccc(Oc2ccc(C(N)=O)cc2)cc1", 3.8],
  ["NC(=O)c1ccc(Oc2ccc(C(=O)O)cc2)cc1", 5.21],
  ["NC(=O)c1ccc(OCc2ccccc2F)cc1", 4.2],
  ["COc1ccc(C(N)=O)cc1", 2.76],
  ["NC(=O)c1ccc(Oc2ccc(C=O)cc2)cc1", 3.6]
]}

---

Biological target: Poly [ADP-ribose] polymerase tankyrase-2 (Homo sapiens)
Sequence (Q9H2K2 whole entry): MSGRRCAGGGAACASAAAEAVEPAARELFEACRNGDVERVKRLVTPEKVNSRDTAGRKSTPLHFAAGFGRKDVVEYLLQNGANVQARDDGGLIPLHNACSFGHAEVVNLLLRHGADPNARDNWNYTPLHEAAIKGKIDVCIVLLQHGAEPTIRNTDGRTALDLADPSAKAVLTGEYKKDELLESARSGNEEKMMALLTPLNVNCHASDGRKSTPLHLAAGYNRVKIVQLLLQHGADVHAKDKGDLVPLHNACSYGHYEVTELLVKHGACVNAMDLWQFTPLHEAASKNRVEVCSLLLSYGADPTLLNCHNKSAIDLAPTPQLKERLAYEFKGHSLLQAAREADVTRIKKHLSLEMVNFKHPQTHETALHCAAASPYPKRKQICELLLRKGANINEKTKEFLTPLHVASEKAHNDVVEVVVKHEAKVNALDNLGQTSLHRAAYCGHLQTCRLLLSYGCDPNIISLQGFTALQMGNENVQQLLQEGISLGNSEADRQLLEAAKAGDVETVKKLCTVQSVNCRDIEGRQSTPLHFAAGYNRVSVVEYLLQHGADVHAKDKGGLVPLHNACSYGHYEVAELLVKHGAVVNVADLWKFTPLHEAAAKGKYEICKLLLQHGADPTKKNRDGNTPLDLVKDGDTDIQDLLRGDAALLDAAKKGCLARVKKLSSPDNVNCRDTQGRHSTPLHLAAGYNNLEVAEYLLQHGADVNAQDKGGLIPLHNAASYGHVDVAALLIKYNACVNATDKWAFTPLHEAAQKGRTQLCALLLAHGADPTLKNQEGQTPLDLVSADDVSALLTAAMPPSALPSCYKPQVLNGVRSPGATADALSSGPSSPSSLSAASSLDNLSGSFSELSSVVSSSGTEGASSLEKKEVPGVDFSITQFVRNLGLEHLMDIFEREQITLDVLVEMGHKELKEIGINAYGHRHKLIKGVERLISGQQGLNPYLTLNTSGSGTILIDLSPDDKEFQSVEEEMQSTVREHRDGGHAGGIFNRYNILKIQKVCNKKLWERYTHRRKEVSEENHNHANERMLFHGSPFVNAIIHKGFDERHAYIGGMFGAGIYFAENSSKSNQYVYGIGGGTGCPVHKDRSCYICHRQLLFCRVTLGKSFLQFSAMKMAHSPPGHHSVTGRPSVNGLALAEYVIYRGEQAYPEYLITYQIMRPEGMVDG
pIC50: −log10 of the molar value.
Listed here: items and their measured pIC50.
measured_property: pIC50

{"columns": ["structure_smiles", "reported_result"],
 "data": [
  ["NC(=O)c1ccc(OCc2ccccc2F)cc1", "< 4.00"],
  ["COc1ccc(C(N)=O)cc1", "< 4.00"],
  ["NC(=O)c1ccc(Oc2ccc(C=O)cc2)cc1", "< 4.00"],
  ["NC(=O)c1ccc(Oc2ccc(C(=O)O)cc2)cc1", "< 4.00"]
]}
